system: SF-268; test: NCI tumour cell line growth inhibition, 48 h
Calls of active or inactive are those of the source. Rule as the data show it: active = GI50 up to about 1.1 µM and inactive = higher.
Entry note: the call must match one of true (1) for active, false (0) for inactive

These recorded examples may help you get a feel for the data.
1) O=C(c1no[n+]([O-])c1C(=O)c1csc2ccccc12)c1csc2ccccc12	false (0)
2) O=C1C(=C(I)I)c2ccccc2-c2ccccc21	false (0)
3) Fc1ccc(-c2sc(-c3ccsc3)cc2Cc2ccsc2)cc1	false (0)

Problem: Can you look up the reported call for "NCCCc1nonc1C(=O)O" for me?
Solution: false (0)

Problem: Could you do the same for "CN(C)/C=N/c1c2c(nc3ccccc13)CCCC2" , please?
Solution: false (0)

Problem: Now this one: COC1/C=C/C(C)C(C(C)C(OC)C(C)CCC(=O)C(C)C(CC(=O)O)OC)OC(=O)/C=C/C=C(\C)CC(OC)C(OC)C2=CC(=O)O[C@@H](C(C)C(OC)CC(OC)/C=C/C(C)C(O)C1)[C@H]2O (some centres not stated)
Solution: true (1)

Problem: Could you do the same for "COc1cc(/C=C\c2ccc(O)cc2)cc(OC)c1OC" , please?
Solution: true (1)

Cited source: ChEMBL document CHEMBL1201862
